# System: PAXF 2059
# measurement_notes: Cell lines exhibiting drug resistance (IC50)
# Type: cell-based
Counter-ions that a name gives are not always drawn.
Catalogue of IC50 readings, one per entry.

{"columns": ["molecule", "IC50 [nM]"],
 "data": [
  ["COc1cccc2c1C(=O)c1c(O)c3c(c(O)c1C2=O)C[C@@](O)(C(=O)CO)C[C@@H]3O[C@H]1C[C@H](N)[C@H](O)[C@H](C)O1 [Doxorubicin HCl]", 131],
  ["N.N.[Cl][Pt][Cl] [Cisplatin]", 41000],
  ["CN(Cc1cnc2nc(N)nc(N)c2n1)c1ccc(C(=O)N[C@@H](CCC(=O)O)C(=O)O)cc1 [Methotrexate Hydrat]", 31],
  ["Nc1ccn([C@@H]2O[C@H](CO)[C@@H](O)C2(F)F)c(=O)n1 [Gemcitabine HCl]", 15],
  ["O=C1c2c(O)ccc(O)c2C(=O)c2c(NCCNCCO)ccc(NCCNCCO)c21 [Mitoxantron 2HCl]", 35],
  ["CCN(CC)CCNC(=O)c1c(C)[nH]c(/C=C2\\C(=O)Nc3ccc(F)cc32)c1C [Sunitinib malate]", 16500],
  ["CC(=O)O[C@@]12CO[C@@H]1C[C@H](O)[C@@]1(C)C(=O)[C@H](O)C3=C(C)[C@@H](OC(=O)[C@H](O)[C@@H](NC(=O)OC(C)(C)C)c4ccccc4)C[C@@](O)([C@@H](OC(=O)c4ccccc4)[C@H]21)C3(C)C", 100],
  ["CCCS(=O)(=O)Nc1ccc(F)c(C(=O)c2c[nH]c3ncc(-c4ccc(Cl)cc4)cc23)c1F", 11400],
  ["CC(=O)O[C@H]1C(=O)[C@@]2(C)[C@H]([C@H](OC(=O)c3ccccc3)[C@]3(O)C[C@H](OC(=O)[C@H](O)[C@@H](NC(=O)c4ccccc4)c4ccccc4)C(C)=C1C3(C)C)[C@]1(OC(C)=O)CO[C@@H]1C[C@@H]2O", 261]
]}

###

# Tested on: PAXF 546
# measurement_notes: Cell lines exhibiting drug resistance (IC50)
# Format: cell-based
Where a name gives a salt, the structure may show the parent alone.

{"columns": ["compound", "study_target", "IC50 / nM"],
 "data": [
  ["O=C1[O][Pt]2([NH][C@@H]3CCCC[C@H]3[NH]2)[O]C1=O", "PAXF 546", 1240],
  ["CO[C@@]12[C@H](COC(N)=O)C3=C(C(=O)C(C)=C(N)C3=O)N1C[C@@H]1N[C@@H]12", "PAXF 546", 465],
  ["CC[C@]1(O)C[C@@H]2CN(CCc3c([nH]c4ccccc34)[C@@](C(=O)OC)(c3cc4c(cc3OC)N(C)[C@H]3[C@@](O)(C(N)=O)[C@H](O)[C@]5(CC)C=CCN6CC[C@]43[C@@H]65)C2)C1 [Vindesin sulfate]", "PAXF 546", 109],
  ["N.N.[Cl][Pt][Cl] [Cisplatin]", "PAXF 546", 11500]
]}

###

Catalogue of pIC50 readings, one per entry.
# System: PAXF 2035
# measurement_notes: Cell lines exhibiting drug resistance (IC50)
# Type: cell-based
pIC50: −log10 of the molar value. Where a name gives a salt, the structure may show the parent alone.

{"columns": ["molecule", "pIC50"],
 "data": [
  ["O=C1c2c(O)ccc(O)c2C(=O)c2c(NCCNCCO)ccc(NCCNCCO)c21 [Mitoxantron 2HCl]", 7.17],
  ["CO[C@@]12[C@H](COC(N)=O)C3=C(C(=O)C(C)=C(N)C3=O)N1C[C@@H]1N[C@@H]12 [Mitomycin C]", 6.17],
  ["CCCS(=O)(=O)Nc1ccc(F)c(C(=O)c2c[nH]c3ncc(-c4ccc(Cl)cc4)cc23)c1F [Vemurafenib]", 4.94],
  ["O=C1[O][Pt]2([NH][C@@H]3CCCC[C@H]3[NH]2)[O]C1=O [Oxaliplatin]", 4.00],
  ["CC[C@]1(O)C[C@H]2CN(CCc3c([nH]c4ccccc34)[C@@](C(=O)OC)(c3cc4c(cc3OC)N(C=O)[C@H]3[C@@](O)(C(=O)OC)[C@H](OC(C)=O)[C@]5(CC)C=CCN6CC[C@]43[C@@H]65)C2)C1 [Vincristine sulfate]", 6.34],
  ["Nc1ccn([C@@H]2O[C@H](CO)[C@@H](O)C2(F)F)c(=O)n1 [Gemcitabine HCl]", 5.83],
  ["C#Cc1cccc(Nc2ncnc3cc(OCCOC)c(OCCOC)cc23)c1 [Erlotinib HCl]", 4.08],
  ["COc1cccc2c1C(=O)c1c(O)c3c(c(O)c1C2=O)C[C@@](O)(C(=O)CO)C[C@@H]3O[C@H]1C[C@H](N)[C@H](O)[C@H](C)O1 [Doxorubicin HCl]", 6.10],
  ["N.N.[Cl][Pt][Cl] [Cisplatin]", 4.34],
  ["O=c1[nH]cc(F)c(=O)[nH]1 [5-Fluorouracil]", 3.98],
  ["CCN(CC)CCNC(=O)c1c(C)[nH]c(/C=C2\\C(=O)Nc3ccc(F)cc32)c1C [Sunitinib malate]", 5.62],
  ["CC(=O)O[C@@]12CO[C@@H]1C[C@H](O)[C@@]1(C)C(=O)[C@H](O)C3=C(C)[C@@H](OC(=O)[C@H](O)[C@@H](NC(=O)OC(C)(C)C)c4ccccc4)C[C@@](O)([C@@H](OC(=O)c4ccccc4)[C@H]21)C3(C)C [Docetaxel]", 8.40],
  ["CC(=O)O[C@H]1C(=O)[C@@]2(C)[C@H]([C@H](OC(=O)c3ccccc3)[C@]3(O)C[C@H](OC(=O)[C@H](O)[C@@H](NC(=O)c4ccccc4)c4ccccc4)C(C)=C1C3(C)C)[C@]1(OC(C)=O)CO[C@@H]1C[C@@H]2O [Paclitaxel]", 6.84]
]}

###

# Tested on: PAXF HPAC
# measurement_notes: Cell lines exhibiting drug resistance (IC50)
# Type: cell-based

{"columns": ["molecule", "IC50"],
 "data": [
  ["N.N.[Cl][Pt][Cl] [Cisplatin]", "31.7 µM"]
]}

###

Catalogue of pIC50 readings, one per entry.
# Tested on: PAXF 2005
# measurement_notes: Cell lines exhibiting drug resistance (IC50)
# Assay type: cell-based
# stated_conditions: PAXF 2005
pIC50: −log10 of the molar value.

{"columns": ["compound", "pIC50"],
 "data": [
  ["N.N.[Cl][Pt][Cl] [Cisplatin]", 4.97],
  ["O=C1c2c(O)ccc(O)c2C(=O)c2c(NCCNCCO)ccc(NCCNCCO)c21 [Mitoxantron 2HCl]", 7.80],
  ["CN(Cc1cnc2nc(N)nc(N)c2n1)c1ccc(C(=O)N[C@@H](CCC(=O)O)C(=O)O)cc1 [Methotrexate Hydrat]", 5.00],
  ["CO[C@@]12[C@H](COC(N)=O)C3=C(C(=O)C(C)=C(N)C3=O)N1C[C@@H]1N[C@@H]12", 6.56],
  ["O=C1[O][Pt]2([NH][C@@H]3CCCC[C@H]3[NH]2)[O]C1=O", 4.90]
]}

###

# Tested on: PAXF 546
# measurement_notes: Cell lines exhibiting drug resistance (IC50)
# Type: cell-based
pIC50: −log10 of the molar value.
Catalogue of pIC50 readings, one per entry.

{"columns": ["compound", "pIC50"],
 "data": [
  ["Nc1nc2[nH]cc(CCc3ccc(C(=O)N[C@@H](CCC(=O)O)C(=O)O)cc3)c2c(=O)[nH]1 [Pemetrexed, dinatrium]", 6.94],
  ["O=NN(CCCl)C(=O)NCCO [Elmustin]", 3.14],
  ["CN(Cc1cnc2nc(N)nc(N)c2n1)c1ccc(C(=O)N[C@@H](CCC(=O)O)C(=O)O)cc1 [Methotrexate Hydrat]", 6.89],
  ["O=C1c2c(O)ccc(O)c2C(=O)c2c(NCCNCCO)ccc(NCCNCCO)c21 [Mitoxantron 2HCl]", 6.73],
  ["N.N.O=C([O-])C1(C(=O)[O-])CCC1.[Pt+2] [Carboplatin]", 4.77]
]}
